- Experiment Notes: folding enthalpy; higher = less favourable; fluorescence melt of hairpins on a sequencing array, two-state fit
- Particulars: sodium 0.088 M
Test Readout: folding enthalpy (kcal/mol)

> print(dat)
                                    chain  reported.value
 1  GCTTTGCGAAAGCATTGC ((..(((....)))..))           -19.3
 2  GTTGTCGGAAACGACGAC ((.((((....)))).))           -24.8
 3      GATCGCTAGCGCGATC ((((((....))))))             -34
 4  GGGGTAGCGAAAGCTCCC (((..(((....))))))           -23.2
 5      GATCGTAGCAACGATC ((((((....))))))           -38.6
 6      GATCCCATTTGGGATC ((((((....))))))             -37
 7    GTGTGACGAAAGTCCAC (((.(((....))))))           -40.2
 8  GTACACCCGAAAGGGTAC (((..(((....))))))           -9.29
 9  GAGCCGGGAAACTGGCTC (((((.(....).)))))           -36.2
10              GCGATGATTCGC ((((....))))           -23.3
11  GGAAGACGAAAGTCATCC (((.(((....))).)))             -26
12  GCACGTTCGAAAGAATGC (((..(((....))))))           -16.9

---

Recorded Tm values for a group of sequences are listed next.
- Experiment Notes: melting temperature; fluorescence melt of hairpins on a sequencing array, two-state fit, raised by 9.35 °C to match UV melts
- Particulars: sodium 0.088 M
Test Readout: Tm (°C)

> print(dat)
                                    chain  test.readout  unit.abbrev  reported.value
 1  GCTTAGCGAAAGCAACGC ((.(.((....)).).))            Tm           °C            30.5
 2  GACGCCGGAAACGACGTC ((((.((....)).))))            Tm           °C            57.5
 3      GATCTGTTACCAGATC ((((((....))))))            Tm           °C            50.5
 4          GATGAGAAATCATC (((((....)))))            Tm           °C            39.8
 5    GTGTGGCGAAAGCCCAC (((.(((....))))))            Tm           °C              63
 6          TGCTAGAAATAGCA (((((....)))))            Tm           °C            41.2
 7  GCTTAGGGAAACCTAGGC ((.((((....)))).))            Tm           °C            44.4
 8  CGATCGGAAACGACTTCG ((((((....)))..)))            Tm           °C            25.6
 9    GAAAAACGAAAGTTTTC (((.(((....))))))            Tm           °C            36.9
10      GTTAGCGAAAGCTAAC ((((((....))))))            Tm           °C            66.4
11  GCTCAGCGAAAGCAGGGC ((.(.((....)).).))            Tm           °C            51.9
12  GTGCGGTCGAAAGACCAC (((..(((....))))))            Tm           °C            57.5
13      GATTCGGAAACGAATC ((((((....))))))            Tm           °C            58.6
14  GGTGTCCCGAAAGGGACC (((..(((....))))))            Tm           °C            49.5
15  GCATAGCGAAAGCTTAGC ((..(((....)))..))            Tm           °C            41.6
16      GATCGTCGAAACGATC ((((((....))))))            Tm           °C            53.5
17    GCCAGTCGAAAGACGGC (((.(((....))))))            Tm           °C            61.6
18  GCCCGGCGAAAGCTGAGC ((.(.((....)).).))            Tm           °C            48.7
19    GTCGTCCGAAAGGAGAC (((.(((....))))))            Tm           °C            49.3
20  GCTGTGCGAAAGCGGAGC (((..((....))..)))            Tm           °C            54.9
21  GCCGCCGAAAGGCGCGGC ((((((....)))..)))            Tm           °C            69.3
22  GCAAGGCGAAAGCGTGGC ((.(.((....)).).))            Tm           °C            46.9
23          CCTCGGAAACGAGG (((((....)))))            Tm           °C            55.7
24      GTACAGGAAACTGTAC ((((((....))))))            Tm           °C            52.4
25  GAGTGTCCGAAAGGACTC (((..(((....))))))            Tm           °C            31.9
26  GCCTCGCGAAAGCCGGGC (((..((....))..)))            Tm           °C            55.8
27      GATCCCACAGGGGATC ((((((....))))))            Tm           °C            61.8
28      GATCTACCAGTAGATC ((((((....))))))            Tm           °C            48.9
29  GCTGTGCGAAAGCATGGC ((..(((....)))..))            Tm           °C            59.5
30  GCAGCCGCGAAAGCGTGC (((..(((....))))))            Tm           °C            48.4
31  GGTGGCGAAAGCCACACC ((((((....)))..)))            Tm           °C              60
32      GATCTAACACTAGATC ((((((....))))))            Tm           °C            36.9
33  GGAGGAGGAAACTCCTTC (.(((((....))))).)            Tm           °C            53.4
34              GCGTAGTGACGC ((((....))))            Tm           °C            53.7
35  GCCTAGCGAAAGCTGAGC ((..(((....)))..))            Tm           °C            48.8
36      GATCAACTAATTGATC ((((((....))))))            Tm           °C            40.8
37  GCCTTGACGAAAGTCGGC (((..(((....))))))            Tm           °C            50.3
38  GTGAATGGAAACACTCAC ((((.((....)).))))            Tm           °C            34.4
39  GCGCAGCGAAAGCTCAGC ((..(((....)))..))            Tm           °C              41
40  GTCGTTACGAAAGTAGAC (((..(((....))))))            Tm           °C            44.8
41  GCCTCGCGAAAGCACGGC (((..((....))..)))            Tm           °C            54.1
42  GAAAGCGAAAGCTGCTTC ((((((....)))..)))            Tm           °C            42.9
43          GACGAGAAATCGTC (((((....)))))            Tm           °C            51.2
44  GAACGACGAAAGTCCTTC (((.(((....))).)))            Tm           °C            31.3
45  GCATACCGAAAGGTCTGC (((.(((....))).)))            Tm           °C            51.4
46      GATCTAAGGCTAGATC ((((((....))))))            Tm           °C            38.8
